study.system: wild type HilD (Salmonella typhimurium, UniProt P0CL08)
Sequence (P0CL08 1-309): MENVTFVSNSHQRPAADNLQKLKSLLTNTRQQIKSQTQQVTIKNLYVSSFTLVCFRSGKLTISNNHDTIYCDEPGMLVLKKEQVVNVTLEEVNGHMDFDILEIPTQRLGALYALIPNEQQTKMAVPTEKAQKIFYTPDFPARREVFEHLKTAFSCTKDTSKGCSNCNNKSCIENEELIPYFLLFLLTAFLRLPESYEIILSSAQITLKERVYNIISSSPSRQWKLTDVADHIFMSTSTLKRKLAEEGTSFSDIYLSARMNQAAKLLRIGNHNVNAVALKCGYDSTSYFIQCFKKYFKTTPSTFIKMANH
compounds and their reported Kd
Numbers only here, please. The scale is µM.

compound	measurement.units	Kd
CCCCCCCCCCCCC/C=C/C(=O)O [t2-HDA, trans-2-hexadecenoic acid]	µM	9.8

Query block: Item CCCCCCCCCCCCC/C=C\C(=O)O [c2-HDA, cis-2-hexadecenoic acid] : provide Kd
Result block: 3.5

* * *

study.system: HilD^K293A (Salmonella typhimurium, UniProt P0CL08, K293A)
assay.protocol: ELISA binding of fatty acid to HilD K293A
measurement.context: plates pre-adsorbed with 10 μM fatty acid
experimental.endpoint: Kd (µM)
Expressed in µM, but write only the number.

Query block: Give the value of Kd reported for the following: CCCCCCCCCCCCC/C=C/C(=O)O [t2-HDA, trans-2-hexadecenoic acid]
Result block: 16.7

* * *

study.system: HilD^Q290A (Salmonella typhimurium, UniProt P0CL08, Q290A)
assay.protocol: ELISA binding of fatty acid to HilD Q290A
measurement.context: plates pre-adsorbed with 10 μM fatty acid
experimental.endpoint: Kd (µM)
Report only the number, with the unit µM understood.

Query block: Given CCCCCCCCCCCCC/C=C\C(=O)O [c2-HDA, cis-2-hexadecenoic acid] , report its Kd on HilD^Q290A (Salmonella typhimurium, UniProt P0CL08, Q290A).
Result block: 9.7

Hello, the source for this data is paper PMC7932555, in case you need it.
